Target: T1, Recombinant Human DLL4 (human, UniProt Q9NR61 27-524)
T1 construct: also called delta-like protein 4; rHuman DLL4
Assay Details: ELISA, DLL4 coated on plate, Fab at 100 nM, absorbance at 450 nm minus blank
Measured Parameter: ELISA Signal-blank (100 nM Fab)

// solved cases for ELISA Signal-blank (100 nM Fab) follow
Binder	ELISA Signal-blank (100 nM Fab)
Fab VH5-51_IGHD5-18*01>3_IGHJ4*01 G100K/G104T G24T/S28R/G35V (H:KT TRV) & V3-4_IGLJ1*01 Y33A (Fab, V domains shown, Fab; expressed in E. coli with CH1 (Plasmid A, His6 and Flag tags) and lambda CL (Plasmid E); also called H:KT TRV & Y33A) VH: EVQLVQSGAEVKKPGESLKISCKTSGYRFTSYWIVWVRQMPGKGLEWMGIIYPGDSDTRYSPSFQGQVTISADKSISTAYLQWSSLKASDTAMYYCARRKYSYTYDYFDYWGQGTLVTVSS VL: QTVVTQEPSFSVSPGGTVTLTCGLSSGSVSTSAYPSWYQQTPGQAPRTLIYSTNTRSSGVPDRFSGSILGNKAALTITGAQADDESDYYCVLYMGSGISYVFGTGTKVTVL	0.301
Fab VH5-51_IGHD5-18*01>3_IGHJ4*01 G100K/G104T G24T/S28R/G35V (H:KT TRV) & V3-4_IGLJ1*01 S99A (Fab, V domains shown, Fab; expressed in E. coli with CH1 (Plasmid A, His6 and Flag tags) and lambda CL (Plasmid E); also called H:KT TRV & S99A) VH: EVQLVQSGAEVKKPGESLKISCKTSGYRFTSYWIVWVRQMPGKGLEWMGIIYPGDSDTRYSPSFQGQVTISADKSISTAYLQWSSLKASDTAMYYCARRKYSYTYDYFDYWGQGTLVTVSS VL: QTVVTQEPSFSVSPGGTVTLTCGLSSGSVSTSYYPSWYQQTPGQAPRTLIYSTNTRSSGVPDRFSGSILGNKAALTITGAQADDESDYYCVLYMGSGIAYVFGTGTKVTVL	0.3
Fab VH5-51_IGHD5-18*01>3_IGHJ4*01 G100K/G104T G24T/S28R/G35V (H:KT TRV) & V3-4_IGLJ1*01 S26A (Fab, V domains shown, Fab; expressed in E. coli with CH1 (Plasmid A, His6 and Flag tags) and lambda CL (Plasmid E); also called H:KT TRV & S26A) VH: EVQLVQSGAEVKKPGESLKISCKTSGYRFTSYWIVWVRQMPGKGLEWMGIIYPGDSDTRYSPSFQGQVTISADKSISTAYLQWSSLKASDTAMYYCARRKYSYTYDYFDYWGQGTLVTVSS VL: QTVVTQEPSFSVSPGGTVTLTCGLSAGSVSTSYYPSWYQQTPGQAPRTLIYSTNTRSSGVPDRFSGSILGNKAALTITGAQADDESDYYCVLYMGSGISYVFGTGTKVTVL	0.395
Fab VH5-51_IGHD5-18*01>3_IGHJ4*01 G100K/G104T G24T/S28R/G35V (H:KT TRV) & V3-4_IGLJ1*01 I98A (Fab, V domains shown, Fab; expressed in E. coli with CH1 (Plasmid A, His6 and Flag tags) and lambda CL (Plasmid E); also called H:KT TRV & I98A) VH: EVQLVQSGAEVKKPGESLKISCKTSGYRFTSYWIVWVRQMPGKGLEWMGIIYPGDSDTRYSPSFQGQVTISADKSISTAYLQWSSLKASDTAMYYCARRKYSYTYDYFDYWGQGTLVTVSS VL: QTVVTQEPSFSVSPGGTVTLTCGLSSGSVSTSYYPSWYQQTPGQAPRTLIYSTNTRSSGVPDRFSGSILGNKAALTITGAQADDESDYYCVLYMGSGASYVFGTGTKVTVL	0.162

Let us examine a further case.
ELISA Signal-blank (100 nM Fab) reported for this binder Fab VH5-51_IGHD5-18*01>3_IGHJ4*01 G100K/G104T G24T/S28R/G35V (H:KT TRV) & V3-4_IGLJ1*01 G27A (Fab, V domains shown, Fab; expressed in E. coli with CH1 (Plasmid A, His6 and Flag tags) and lambda CL (Plasmid E); also called H:KT TRV & G27A) VH: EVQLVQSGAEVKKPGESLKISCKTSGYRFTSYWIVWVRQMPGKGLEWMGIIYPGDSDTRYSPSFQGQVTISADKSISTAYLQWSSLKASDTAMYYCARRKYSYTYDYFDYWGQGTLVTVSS VL: QTVVTQEPSFSVSPGGTVTLTCGLSSASVSTSYYPSWYQQTPGQAPRTLIYSTNTRSSGVPDRFSGSILGNKAALTITGAQADDESDYYCVLYMGSGISYVFGTGTKVTVL : 0.398
